# Assay Details: Human HepG2 cell viability assay in 384 well format
# Format: toxicity, cell-based
# Design: dose 125 nL, time 70.5 hour; concentration not given beside the values
# Conditions Used: HepG2 cells, read-out: Inhibition
Measured Endpoint: cytotoxicity at 70.5 h (%)
API: value field is a number in %; no unit string.

>>> df
                                   compound  measured
0  CCc1nc(CN(C)C2CCN(CCCOc3ccccc3)C2)no1 (configuration not stated)      9.63

q: Query (compound): "Cc1nc(-c2ccccc2)nc2c1CCN(Cc1nccn1C)CC2" ; field requested: cytotoxicity at 70.5 h
a: -10.4

q: Would you mind doing "C=C(C)COc1ccccc1CNCCc1c[nH]cn1" as well?
a: 2.66

q: Would you mind doing "c1ccc(O[C@@H]2CN(Cc3nccs3)[C@@H]3CCCO[C@@H]32)nc1" as well?
a: 1.57

q: Would you mind doing "O=C(C1CC1)N1CCC(c2nc(-c3ccccc3)n[nH]2)CC1" as well?
a: -1.09

q: Would you mind doing "CC(C)NC(=O)[C@@H]1CN(C)C[C@]12COc1ccc(F)cc1C2=O" as well?
a: -5.13

q: Would you mind doing CN(CC1(O)CCN(c2ccccn2)C1)C(=O)Cc1ccsc1 (configuration not stated) as well?
a: -6.86

q: Would you mind doing "Cc1cnc(C(=O)N2CCN(c3ncc4c(n3)CCOC4)CC2)cn1" as well?
a: -1.26

q: Would you mind doing "COCCNS(=O)(=O)c1ccc(CNc2ncccc2C#N)cc1" as well?
a: -12.6

q: Would you mind doing "O=C(COC[C@@]12CCC[C@@H]1CN(C1CCCC1)C2)N1CCCC1" as well?
a: -1.08

* * *

Reported values of cytotoxicity at 70.5 h for individual entries
# Assay Details: Human HepG2 cell viability assay in 384 well format
# Type: toxicity, cell-based
# Parameters: dose 125 nL, time 70.5 hour; concentration not given beside the values
# Conditions Used: HepG2 cells, read-out: Inhibition
API: value field is a number in %; no unit string.

>>> print(df.to_string())
                                   compound       measured_endpoint  measured
0        O=C(NCCNc1ncccn1)N1CCN(c2nccs2)CC1  cytotoxicity at 70.5 h      -2.7
1  COCC(=O)NC1CCN(c2cccc(OC(F)(F)F)c2)C1=O (stereo not drawn)  cytotoxicity at 70.5 h     -7.95
2  C[S+]([O-])c1ccc(NC(=O)CC2=CCCCC2)cc1 (stereo not drawn)  cytotoxicity at 70.5 h     -3.55

// next item, cytotoxicity at 70.5 h requested
q: Query (compound): "CN(Cc1ccco1)Cc1ccccc1CNC(=O)c1c[nH]nn1" ; field requested: cytotoxicity at 70.5 h
a: -1.03

* * *

# Assay Details: Human HepG2 cell viability assay in 384 well format
# Type: toxicity, cell-based
# Set-up: dose 125 nL, time 70.5 hour; concentration not given beside the values
# Conditions Used: HepG2 cells, read-out: Inhibition
Reported values of cytotoxicity at 70.5 h for individual entries
API: value field is a number in %; no unit string.

q: Query (molecule): c1ccc(CN2CCN(C3CCOC4(CCOCC4)C3)CC2)nc1 (stereo not given) ; field requested: cytotoxicity at 70.5 h
a: -16.9

q: Would you mind doing "CN1CCN(CCO)C(=O)C12CCN(Cc1ccsc1)CC2" as well?
a: -8.5

q: Would you mind doing "COc1ccc(Cl)cc1CC(=O)NS(=O)(=O)c1ccc(C(N)=O)cc1" as well?
a: -3.68

q: Would you mind doing "CSc1nnc(C2CCN(C(=O)N3CCCC3)CC2)n1C" as well?
a: -9.43

q: Would you mind doing Cn1cc(NS(=O)(=O)CC2CCCCO2)cn1 (stereo not given) as well?
a: -8.18

q: Would you mind doing "Cc1nncn1CCN1C(=O)CC2(CCCC2)CC1=O" as well?
a: -7.54

q: Would you mind doing "Cc1cc(=O)n2nc(Oc3cccc(I)c3)sc2n1" as well?
a: -20.9

q: Would you mind doing "COc1ncccc1CNCc1c(C)nn(C)c1N1CCOCC1" as well?
a: -12.3

q: Would you mind doing "CN1Cc2ccccc2CC2(CCN(c3ncc(F)cn3)CC2)C1=O" as well?
a: -12.1

q: Would you mind doing CC(OCC1CC1)C(=O)N1CCCN(c2ncccc2C#N)CC1 (stereo not given) as well?
a: 15.5

q: Would you mind doing "O=C1CCCN1Cc1ncn2c1CN(C(=O)c1cccc(F)c1)CCC2" as well?
a: -13.4

q: Would you mind doing CCc1cc(CNC(=O)N(C2CC2)C(C)c2ccco2)on1 (stereo not given) as well?
a: 23.3

q: Would you mind doing CC(CN1CCCC1)C(=O)N1CCC(c2nccn2CC2CC2)CC1 (stereo not given) as well?
a: 12.9

q: Would you mind doing "CN(C)CCN1CCCC12CCN(C(=O)c1ccncc1)CC2" as well?
a: -7.81

q: Would you mind doing COc1ncccc1CN1Cc2nccn2CC(Cn2cccn2)C1 (stereo not given) as well?
a: -5.37
